B1: Limonene-1,2-epoxide hydrolase, Q9ZAG3 (parent)
chain: MTSKIEQPRWASKDSAAGAASTPDEKIVLEFMDALTSNDAAKLIEYFAEDTMYQNMPLPPAYGRDAVEQTLAGLFTVMSIDAVETFHIGSSNGLVYTERVDVLRALPTGKSYNLSILGVFQLTEGKITGWRDYFDLREFEEAVDLPLRG

Variants of: B1
Settings: Rhodococcus erythropolis; pH 7.1; Thermal; Fluorescence; Potassium phosphate 50mM; transition: 2; reversible: no; structure 1NWW; whole UniProt chain shown
Label 1.0 when change of melting temperature, mutant - wild type (higher = more stable) >= -1 °C; otherwise 0.0.

*Q* Determine whether this variant has change of melting temperature, mutant - wild type (higher = more stable) no lower than -1 °C: T85P
*A* 0.0

*Q* Determine whether this variant has change of melting temperature, mutant - wild type (higher = more stable) no lower than -1 °C: I44C E68C
*A* 1.0

*Q* Determine whether this variant has change of melting temperature, mutant - wild type (higher = more stable) no lower than -1 °C: S111R
*A* 1.0

*Q* Determine whether this variant has change of melting temperature, mutant - wild type (higher = more stable) no lower than -1 °C: S12R
*A* 1.0

*Q* Determine whether this variant has change of melting temperature, mutant - wild type (higher = more stable) no lower than -1 °C: E124R
*A* 0.0

*Q* Determine whether this variant has change of melting temperature, mutant - wild type (higher = more stable) no lower than -1 °C: I27M
*A* 0.0

*Q* Determine whether this variant has change of melting temperature, mutant - wild type (higher = more stable) no lower than -1 °C: S15K
*A* 1.0

*Q* Determine whether this variant has change of melting temperature, mutant - wild type (higher = more stable) no lower than -1 °C: A72R
*A* 0.0

*Q* Determine whether this variant has change of melting temperature, mutant - wild type (higher = more stable) no lower than -1 °C: I127F
*A* 0.0

*Q* Determine whether this variant has change of melting temperature, mutant - wild type (higher = more stable) no lower than -1 °C: P57C D135C
*A* 0.0

*Q* Determine whether this variant has change of melting temperature, mutant - wild type (higher = more stable) no lower than -1 °C: D24C L122C
*A* 0.0

*Q* Determine whether this variant has change of melting temperature, mutant - wild type (higher = more stable) no lower than -1 °C: E124K
*A* 0.0

*Q* Determine whether this variant has change of melting temperature, mutant - wild type (higher = more stable) no lower than -1 °C: Y96F
*A* 1.0

*Q* Determine whether this variant has change of melting temperature, mutant - wild type (higher = more stable) no lower than -1 °C: D33R
*A* 0.0

*Q* Determine whether this variant has change of melting temperature, mutant - wild type (higher = more stable) no lower than -1 °C: T85I
*A* 1.0

*Q* Determine whether this variant has change of melting temperature, mutant - wild type (higher = more stable) no lower than -1 °C: A48C K126C
*A* 1.0

*Q* Determine whether this variant has change of melting temperature, mutant - wild type (higher = more stable) no lower than -1 °C: A20P
*A* 0.0

*Q* Determine whether this variant has change of melting temperature, mutant - wild type (higher = more stable) no lower than -1 °C: A17C N92C
*A* 1.0

*Q* Determine whether this variant has change of melting temperature, mutant - wild type (higher = more stable) no lower than -1 °C: K110R
*A* 0.0

*Q* Determine whether this variant has change of melting temperature, mutant - wild type (higher = more stable) no lower than -1 °C: A16R
*A* 1.0

*Q* Determine whether this variant has change of melting temperature, mutant - wild type (higher = more stable) no lower than -1 °C: K4C A82C
*A* 1.0

*Q* Determine whether this variant has change of melting temperature, mutant - wild type (higher = more stable) no lower than -1 °C: T76K
*A* 1.0

*Q* Determine whether this variant has change of melting temperature, mutant - wild type (higher = more stable) no lower than -1 °C: N92K
*A* 1.0

*Q* Determine whether this variant has change of melting temperature, mutant - wild type (higher = more stable) no lower than -1 °C: T85L
*A* 1.0

*Q* Determine whether this variant has change of melting temperature, mutant - wild type (higher = more stable) no lower than -1 °C: K42R
*A* 0.0

*Q* Determine whether this variant has change of melting temperature, mutant - wild type (higher = more stable) no lower than -1 °C: D65E
*A* 1.0

*Q* Determine whether this variant has change of melting temperature, mutant - wild type (higher = more stable) no lower than -1 °C: Y62W
*A* 1.0

*Q* Determine whether this variant has change of melting temperature, mutant - wild type (higher = more stable) no lower than -1 °C: G89C S91C
*A* 1.0

*Q* Determine whether this variant has change of melting temperature, mutant - wild type (higher = more stable) no lower than -1 °C: K13P
*A* 0.0

*Q* Determine whether this variant has change of melting temperature, mutant - wild type (higher = more stable) no lower than -1 °C: D24R
*A* 0.0

*Q* Determine whether this variant has change of melting temperature, mutant - wild type (higher = more stable) no lower than -1 °C: A41S
*A* 1.0

*Q* Determine whether this variant has change of melting temperature, mutant - wild type (higher = more stable) no lower than -1 °C: L122F
*A* 0.0

*Q* Determine whether this variant has change of melting temperature, mutant - wild type (higher = more stable) no lower than -1 °C: A66P
*A* 1.0

*Q* Determine whether this variant has change of melting temperature, mutant - wild type (higher = more stable) no lower than -1 °C: M52C G129C
*A* 0.0

*Q* Determine whether this variant has change of melting temperature, mutant - wild type (higher = more stable) no lower than -1 °C: D50P
*A* 0.0

*Q* Determine whether this variant has change of melting temperature, mutant - wild type (higher = more stable) no lower than -1 °C: E68Q
*A* 1.0

Taken from FireProtDB (doi:10.1093/protein/gzt061).
